The measurements presented in this section are drawn from PubChem BioAssay (Tox21).

- measurement.protocol: qHTS assay to identify small molecule antagonists of the sonic hedgehog signaling (Shh) pathway - cell viability counter screen (AID 1259367); further: on the % scale 0 is the no-effect control and ±100 the full control effect; nearly all actives have a fitted effect of over 55% in size
- applied.conditions: NIH/3T3 Gli1-Luc viability, CellTiter-Fluor, 24 h; series mostly up to 92.4 µM
Results filed as inconclusive are left out. The source made the active and inactive calls. The call rests on the fitted dose curve; in most records, active means well fitted cell-killing curve with a large enough effect in the repeat runs; inconclusive means weak or mixed curves, or effect the other way; inactive means no such curve, though single readings can be large or run the other way.
endpoint.name: viability change, negative = cytotoxic

Example molecules with recorded viability change, negative = cytotoxic:
molecule	viability change, negative = cytotoxic
CC(C)C(=O)Nc1cccc(C(F)(F)F)c1	inactive
OC(CCN1CCCCC1)(c1ccccc1)c1ccccc1	inactive
CCNC(=O)NCCCOc1cccc(CN2CCCCC2)c1	inactive
CC(C)=CC(C)(C)C	inactive
CC(C)COC(=O)CC(C(=O)OCC(C)C)S(=O)(=O)O (stereo not drawn)	inactive
CNC(=O)NC	inactive
O=C(O)/C=C/c1ccccc1	inactive
CCC(=O)OCCC(C)CCC=C(C)C (stereo not drawn)	inactive
Cc1ccc(C(=O)C(=O)O)cc1C	inactive
C=C(C)C(=O)OCCCCCCOC(=O)C(=C)C	inactive

Problem: Consider the molecule shown here: COC(/C=C(\C)CCC=C(C)C)OC What is its recorded viability change, negative = cytotoxic?
Solution: inactive

Problem: Consider the molecule shown here: COC(OC)C(C)c1ccccc1 (stereo not drawn) What is its recorded viability change, negative = cytotoxic?
Solution: inactive

Problem: Consider the molecule shown here: CC(C)CCCC(C)CC=O (stereo not drawn) What is its recorded viability change, negative = cytotoxic?
Solution: inactive

Problem: Consider the molecule shown here: CCCCCCCCOC(C)=O What is its recorded viability change, negative = cytotoxic?
Solution: inactive

Problem: Consider the molecule shown here: CCN(CCC#N)c1ccccc1 What is its recorded viability change, negative = cytotoxic?
Solution: inactive

###

- target.entity: Vitamin D3 receptor (Homo sapiens)
- measurement.protocol: qHTS assay to identify small molecule agonists of the vitamin D receptor (VDR) signaling pathway (AID 743222); further: on the % scale 0 is the no-effect control and ±100 the full control effect
- applied.conditions: HEK293T VDR-UAS-bla, beta-lactamase FRET ratio, 16 h; series mostly up to 63.5 µM
Records with an inconclusive call do not appear. The source made the active and inactive calls. The call rests on the fitted dose curve.
endpoint.name: activation

molecule	endpoint.name	result
Cc1ccccc1OCC1CO1 (stereo not given)	activation	inactive
O=C(O)C(=O)Nc1cccc(-c2nn[nH]n2)c1	activation	inactive
NC(=O)C1(N2CCCCC2)CCN(CCCC(=O)c2ccc(F)cc2)CC1	activation	inactive
CCN(CCC#N)c1ccccc1	activation	inactive
C=CCOc1c(Br)cc(Br)cc1Br	activation	inactive

Problem: Consider the molecule shown here: COC(=O)CCC(=O)O What is its recorded activation?
Solution: inactive

Problem: Consider the molecule shown here: c1ccc(CNc2ncnc3nc[nH]c23)cc1 What is its recorded activation?
Solution: inactive

Problem: Consider the molecule shown here: CC(=O)/C=C/c1ccco1 What is its recorded activation?
Solution: inactive

Problem: Consider the molecule shown here: CCCCC(=O)N(C)C What is its recorded activation?
Solution: inactive

Problem: Consider the molecule shown here: NC(=O)NC(=O)Cc1ccccc1 What is its recorded activation?
Solution: inactive

Problem: Consider the molecule shown here: C=C[C@@H](C)CCC=C(C)C What is its recorded activation?
Solution: inactive

###

Overview of reported max response across a group of molecules:
- measurement.protocol: qHTS RealTime-Glo MT Cell Viability Assay in HEK293 cells - 40 hour (AID 1224874); further: on the % scale 0 is the no-effect control and ±100 the full control effect; nearly all actives have a fitted effect of over 50% in size
- applied.conditions: RealTime-Glo luminescence; stronger effect = lower value
Inconclusive results are not listed.
The reply should contain only the number, in %.

molecule	max response, %
O=P(O)(O)OCC(O)CO (stereo not drawn)	-2.63

Below: the item to evaluate.
Problem: Consider the molecule shown here: O=C1NC2NC(=O)NC2N1 (stereo not drawn) What is its recorded max response?
Solution: 1.34

###

- measurement.protocol: qHTS assay for small molecule agonists of the antioxidant response element (ARE) signaling pathway - cell viability counter screen (AID 743203); further: on the % scale 0 is the no-effect control and ±100 the full control effect; nearly all actives have a fitted effect of over 55% in size
- applied.conditions: ARE-bla HepG2 viability, CellTiter-Glo luminescence, 16 h; series mostly up to 73.3 µM
- Excerpt: National Center for Advancing Translational Sciences [NCATS] NIH Chemical Genomics Center [NCGC] U.S. Environmental Protection Agency [EPA] National Institutes of Environmental Health Sciences [NIEHS] National Toxicology Program [NTP] U.S. Food and Drug Administration [FDA] Oxidative stress has been implicated in the pathogenesis of a variety of diseases ranging from cancer to neurodegeneration. […] The activation of the report gene under culture conditions can be detected by fluorescence intensity. […]
Inconclusive results are not listed. Active and inactive are the calls of the source. Calls follow the shape of the full dose curve.
endpoint.name: viability change, negative = cytotoxic

Example compounds with recorded viability change, negative = cytotoxic:
compound	endpoint.name	result
O=C1c2ccccc2-c2ccccc21	viability change, negative = cytotoxic	inactive
Oc1ccccc1Cc1ccccc1O	viability change, negative = cytotoxic	inactive
COc1ccc(N=Nc2cc(C)c(N=Nc3ccc(S(=O)(=O)O)cc3)cc2OC)cc1	viability change, negative = cytotoxic	inactive
CCCCCN(CCCOC)C(=O)C(CCC(=O)O)NC(=O)c1ccc(Cl)c(Cl)c1 (stereo not drawn)	viability change, negative = cytotoxic	inactive
FC(F)(F)/C(=N\OCC1OCCO1)c1ccc(Cl)cc1	viability change, negative = cytotoxic	inactive

Problem: Consider the compound shown here: COc1cc([N+](=O)[O-])ccc1N What is its recorded viability change, negative = cytotoxic?
Solution: inactive

Problem: Consider the compound shown here: CCCCCCCCCCC What is its recorded viability change, negative = cytotoxic?
Solution: inactive

Problem: Consider the compound shown here: C=C[C@@H](C)CCC=C(C)C What is its recorded viability change, negative = cytotoxic?
Solution: inactive

###

- measurement.protocol: qHTS RealTime-Glo MT Cell Viability Assay in HEK293 cells - 8 hour (AID 1224887); further: top concentration of the series differs between compounds; on the % scale 0 is the no-effect control and ±100 the full control effect; nearly all actives have a fitted effect of over 50% in size
- applied.conditions: RealTime-Glo luminescence; series mostly up to 76.8 µM
Records with an inconclusive call do not appear. Activity calls are given as the source filed them. The call rests on the fitted dose curve; in most records, active means well fitted cell-killing curve with a large enough effect in the repeat runs; inconclusive means weak or mixed curves, or effect the other way; inactive means flat fitted curve, though single readings scatter.
endpoint.name: activity change, negative = cytotoxicity

compound	activity change, negative = cytotoxicity
NS(=O)(=O)c1ccccc1OC(F)(F)F	inactive
Cn1c(=O)c2c(ncn2CC2OCCO2)n(C)c1=O	inactive
CCOC(=O)OCC/C(SC(=O)OCC)=C(\C)N(C=O)Cc1cnc(C)nc1N	inactive
COC(=O)CCC(=O)O	inactive
CN(C1CCCCC1)S(=O)(=O)c1ccccc1N	inactive
CC(=O)N(CC(O)CO)c1c(I)c(C(=O)NCC(O)CO)c(I)c(C(=O)NCC(O)CO)c1I (centres undefined)	inactive

Problem: Consider the compound shown here: O=c1cc(O)c(Cl)c[nH]1 What is its recorded activity change, negative = cytotoxicity?
Solution: inactive

Problem: Consider the compound shown here: C=CCOc1cc(Cl)ccc1C(=O)NCCN(CC)CC What is its recorded activity change, negative = cytotoxicity?
Solution: inactive

Problem: Consider the compound shown here: CC(C)CCCC(C)CC=O (centres undefined) What is its recorded activity change, negative = cytotoxicity?
Solution: inactive

Problem: Consider the compound shown here: Cc1ccccc1OCC1CO1 (centres undefined) What is its recorded activity change, negative = cytotoxicity?
Solution: inactive

Problem: Consider the compound shown here: CCCCCCCCCCCCCCCCI What is its recorded activity change, negative = cytotoxicity?
Solution: -0.789% [at 15.8 µM] (inactive)

Problem: Consider the compound shown here: CCC(C)(CCC(C)C)C(=O)[O-].CCC(C)(CCC(C)C)C(=O)[O-].[Zn+2] (centres undefined) What is its recorded activity change, negative = cytotoxicity?
Solution: inactive

Problem: Consider the compound shown here: CCCCCC1CCCC(=O)O1 (centres undefined) What is its recorded activity change, negative = cytotoxicity?
Solution: inactive

###

- measurement.protocol: qHTS assay to identify small molecule agonists of H2AX (AID 1224845); further: on the % scale 0 is the no-effect control and ±100 the full control effect
- applied.conditions: CHO-K1 phospho-H2AX Ser139 HTRF, 3 h; series mostly up to 154 µM
Inconclusive results are not listed. Activity calls are given as the source filed them. Calls follow the shape of the dose curve; as a rule, active = well fitted activation curve with a large enough effect in the signal ratio in the repeat runs (not every such curve was filed as active); inconclusive = weak or mixed curves; inactive = flat fitted curve, though single readings scatter; the % refers to the signal ratio.
endpoint.name: activation (H2AX phosphorylation)

Example compounds with recorded activation (H2AX phosphorylation):
O=C(O)Cc1cccc(-c2cc(CCCCCCc3ccc(O[C@H]4O[C@H](CO)[C@@H](O)[C@H](O)[C@@H]4O)c(-c4cccc(CC(=O)O)c4)c3)ccc2O[C@H]2O[C@H](CO)[C@@H](O)[C@H](O)[C@@H]2O)c1 0.108% [at 0.582 µM] (inactive)
NC(=O)NNC(N)=O inactive
N#CCCOCCOCCC#N inactive
Cc1nc(C)nc(N2C[C@@H](C)N(c3ccnc([C@@H](C)O)n3)[C@@H](C)C2)n1 inactive
C[C@@H]1C[C@H]2[C@@H]3C[C@H](F)C4=CC(=O)C=C[C@]4(C)[C@@]3(F)[C@@H](O)C[C@]2(C)[C@@]1(O)C(=O)CO inactive

Problem: Consider the compound shown here: O=C1CC[C@H](C(=O)N2CCCCC2)N1 What is its recorded activation (H2AX phosphorylation)?
Solution: inactive

Problem: Consider the compound shown here: O=C(CN1CCN(Cc2ccc3c(c2)OCO3)CC1)N1c2ccccc2Sc2ccccc21 What is its recorded activation (H2AX phosphorylation)?
Solution: inactive

Problem: Consider the compound shown here: F[Si-2](F)(F)(F)(F)F What is its recorded activation (H2AX phosphorylation)?
Solution: inactive

Problem: Consider the compound shown here: C=CCCCCCCCCCCC What is its recorded activation (H2AX phosphorylation)?
Solution: -0.58% [at 14 µM] (inactive)

Problem: Consider the compound shown here: COc1ccc(NS(=O)(=O)c2ccc(N)cc2)nn1 What is its recorded activation (H2AX phosphorylation)?
Solution: inactive
